Give measured EC50 for each item. Keep answers brief.
# TEST TARGET: human GIP receptor (hGIPR) (Homo sapiens)
# Construct: expressed in transfected cells
# Sequence (P48546 22-466): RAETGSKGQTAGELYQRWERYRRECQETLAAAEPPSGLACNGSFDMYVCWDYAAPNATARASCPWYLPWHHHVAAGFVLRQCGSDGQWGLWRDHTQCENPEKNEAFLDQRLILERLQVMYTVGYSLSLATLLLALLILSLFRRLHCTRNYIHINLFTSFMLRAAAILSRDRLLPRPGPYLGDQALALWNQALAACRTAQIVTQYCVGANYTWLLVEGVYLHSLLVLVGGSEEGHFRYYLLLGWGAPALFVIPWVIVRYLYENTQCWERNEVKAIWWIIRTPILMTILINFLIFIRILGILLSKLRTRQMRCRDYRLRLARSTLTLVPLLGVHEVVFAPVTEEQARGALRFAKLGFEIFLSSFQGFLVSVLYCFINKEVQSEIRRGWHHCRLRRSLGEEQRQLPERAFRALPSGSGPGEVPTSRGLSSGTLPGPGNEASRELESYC
# ASSAY INFO: GIP receptor assay, method A (CRE-luciferase reporter, BHK cells)
# Type: cell-based
# STATED CONDITIONS: hGIPR Potency, 1% HSA, EC50, method A, in the presence of 1% HSA
Numbered stars: 1 amine (or outer) side, 2 acyl side, 3 side chain; on linkers, the order of the positions; unused ones are H or OH. Square brackets hold non-standard residues; d marks the D form. Side chains are listed from the residue outwards. * marks the point of attachment. C20 diacid = O=C(O)CCCCCCCCCCCCCCCCCCC(=O)*; C18 diacid = O=C(O)CCCCCCCCCCCCCCCCC(=O)*; γGlu = O=C(O)[C@H](CCC(=O)[*:2])N[*:1]; AEEA = NCCOCCOCC(=O)O; Aib = CC(C)(N)C(=O)O
The figure you give is taken to be in nM; do not add the unit.

Query (substance): Y[Aib]EGTFTSDYSILLEEQAAREFIEWLLAGGPSGGEASHLSTAQTQRLSAELHK([AEEA-AEEA-γGlu-C18 diacid])LATLPRTETGSGSP-NH2 [Compound 74] ; field requested: EC50
0.0187

Query (substance): H[Aib]HGTFTSDYSILLEEQAAREFIEWLLAGGPSSGEASHLSTAQTQRLSAELHRLK([AEEA-AEEA-γGlu-C18 diacid])TLPRTETGSGSP-NH2 [Compound 83] ; field requested: EC50
0.0136

Query (substance): Y[Aib]EGTFTSDYSILLEEQAAREFIEWLLAGGPSSGALQAPGQAPLASHLSTAQTQRLSAELHK([AEEA-AEEA-γGlu-C20 diacid])LATLPRTETGSGSP-NH2 [Compound 99] ; field requested: EC50
0.00741

Query (substance): Y[Aib]EGTFTSDYSILLEEQAAREFIEWLLAGGPSSGAGQAPGQAPGASHLSTAQTQRLSAELHRLK([AEEA-AEEA-γGlu-C18 diacid])TLPRTETGSGSP-NH2 [Compound 56] ; field requested: EC50
0.00848

Query (substance): H[Aib]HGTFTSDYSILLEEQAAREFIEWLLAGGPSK([γGlu-C18 diacid])GAPPPSGGGEASHLSTAQTARLSAELHRLADLPRTETGSGSP-NH2 [Compound 112] ; field requested: EC50
0.321

Data provenance is patent US20260174875A1.
